Tested on: PC-3 prostate
protocol.text: NCI-60 one-dose screen, 48 h
condition.parameters: 10 µM unless noted
The panel holds about 83,000 compounds, 20% with a hit somewhere; the sample as a whole holds those more often. Activity calls are given as the source filed them. How the source made its calls: active means growth percent below 10; inactive means the rest.
Write down one outcome, taken from active, inactive

{"columns": ["compound", "subject.of.test", "group"],
 "data": [
  ["COc1cccc(-c2[nH]c(=S)ncc2C(=O)c2ccccc2)c1", "PC-3 prostate", "inactive"],
  ["CCOc1ccc2sc(NS(=O)(=O)c3ccc(N)cc3)nc2c1", "PC-3 prostate", "inactive"],
  ["CCCCCCNC(=O)Nc1ncnc2c1ncn2-c1ccccc1", "PC-3 prostate", "inactive"],
  ["COc1c(B(O)O)cccc1-c1nc2ccc3[nH]ncc3c2c2c1CCC2", "PC-3 prostate", "inactive"],
  ["CCNc1cc2c(cc1Br)-c1ccccc1C2=O", "PC-3 prostate", "inactive"]
]}

Q. Each compound tested received a call. Report the one for Cn1cc(-c2noc(-c3cn(C)c4ncc(Br)cc34)n2)c2cc(Cl)ccc21 .
A. inactive

Q. Recorded test call requested for CCN(CC)CCCC(C)Nc1c2ccc(C)cc2nc2ccc(OC)cc12 (stereo not given)
A. inactive

###

Tested on: OVCAR-3 ovarian
protocol.text: NCI-60 one-dose screen, 48 h
condition.parameters: 10 µM unless noted
This is part of a sample that, as a whole, favours compounds with a hit. Of some 83,000 tested, about 20% had one in any assay. Calls of active or inactive are those of the source. The calls were made as follows: active = growth percent below 10; inactive = the rest.
Valid outcomes are listed here; reply with one: t for active, f for inactive

Completed entries (count: 8):
{"columns": ["compound", "group"],
 "data": [
  ["C=C(C)[C@@H]1CC[C@]2(COCCCN)CC[C@]3(C)[C@H](CC[C@@H]4[C@@](C)(CCCNCCCN)[C@H](C(=C)C)CC[C@]43C)[C@@H]12", "t"],
  ["C=CCCC1(C)NC(=O)NC1=O (stereo not given)", "f"],
  ["O=C1CC(C(F)(F)F)Cc2nc3ccc(Br)cc3cc21 (stereo not given)", "f"],
  ["CCN(CC)CCSC(=O)C(O)(c1ccccc1)C1CCCC1 (stereo not given)", "f"],
  ["C=CCc1nc2ccccc2s1", "f"],
  ["CN(C)C(=S)Sc1ccc([N+](=O)[O-])cc1[N+](=O)[O-]", "t"],
  ["Cc1cccc(/C=C2\\N=C(c3ccccc3)N(c3ccc(S(N)(=O)=O)cc3)C2=O)c1", "f"],
  ["COc1cc2c(c(OC)c1OC)-c1ccc(NNC(N)=S)c(=O)cc1[C@@H](NC(C)=O)CC2", "t"]
]}

Q. Lab log entry: O=C(Nc1ccc(Oc2ccc(F)cc2)c(Cl)c1)c1cccnn1 — outcome as called in the assay?
A. f

Q. Just curious, what result did COc1ccc2nc3c(cc2c1)C(=O)CC(c1ccccc1)C3 (stereo not given) get here?
A. t

###

Recorded growth for the following compounds
Tested on: SF-268 CNS
protocol.text: NCI-60 one-dose screen, 48 h (100 = growth as untreated, 0 = no growth, -100 = all killed)
condition.parameters: 10 µM unless noted
Protocol: Cells are grown in 96 well plates and exposed to the test compound for 48 hours. Compounds are tested at a single concentration, which is 10^-5 M for most compounds. The reported endpoint is percent growth (GI% or GIPRCNT), where numbers from 0 - 100% represent growth inhibition, and numbers from -100% - 0 represent cell death. For example, a value of 40 represents 60% growth inhibition. A value of 0 means no net growth occurred over the course of the experiment. […]
Compounds without any hit were thinned out: in the full panel of roughly 83,000, 20% have a hit.
Report the value in % with no unit label.

Worked examples follow.
{"columns": ["compound", "subject.of.test", "growth / %"],
 "data": [
  ["Cn1cc(-c2nnc(-c3ccccc3)s2)c2cc(Br)cnc21", "SF-268 CNS", 91.7],
  ["COc1ccc2c3ccnc(C(F)(F)F)c3n(CCCCN)c2c1", "SF-268 CNS", 67.5],
  ["O=C1CC(C(F)(F)F)Cc2nc3ccc(Br)cc3cc21 (configuration not stated)", "SF-268 CNS", 88.4],
  ["Cc1ccc(-c2cn(C/C=C3\\C=CN(S(=O)(=O)c4ccccc4)CC3)nn2)cc1", "SF-268 CNS", 99.3],
  ["Cc1cc[n+](CCCCCCCCCC[n+]2ccc(C)cc2)cc1", "SF-268 CNS", 93.4],
  ["N/C(=N\\c1nc2ccccc2[nH]1)NC(=O)Cc1cccc2ccccc12", "SF-268 CNS", 86.5]
]}

Attention now turns to another entry.
Q. For NS(=O)(=O)c1ccc(CCN2C(=O)/C(=C\c3ccccc3)C=C2c2ccc(Cl)cc2)cc1 , write its growth.
A. 90.6

###

Test system: NCI-H226 lung
protocol.text: NCI-60 one-dose screen, 48 h
condition.parameters: 10 µM unless noted
Compounds without any hit were thinned out: in the full panel of roughly 83,000, 20% have a hit. The source made the active and inactive calls. How the source made its calls: active means growth percent below 10; inactive means the rest.
Reply using exactly one outcome from active, inactive

{"columns": ["molecule", "group"],
 "data": [
  ["COCCCNc1nc(NC(=O)c2cc(Br)cc(C(F)(F)F)c2)cc(-c2cccnc2)n1", "inactive"],
  ["COc1ccc(/C=C(/C(=O)c2ccc(Cl)cc2)C(=O)C(F)(F)F)cc1", "inactive"],
  ["C#C[C@]1(O)CC[C@H]2[C@@H]3CC=C4c5nc(Nc6ncccn6)sc5CC[C@]4(C)[C@H]3CC[C@@]21C", "inactive"],
  ["COc1cc2c(c(OC)c1OC)-c1ccc(NNC(N)=S)c(=O)cc1[C@@H](NC(C)=O)CC2", "inactive"],
  ["C[C@H]1[C@H](C)CC[C@]2(C(=O)O)CC[C@]3(C)C(=CC[C@@H]4[C@@]5(C)C/C(=C/c6ccco6)C(=O)C(C)(C)[C@@H]5CC[C@]43C)[C@H]12", "active"],
  ["CCOC(=O)c1ccc2nc(-c3c(C)nn(-c4ccccc4)c3N3CCOCC3)[nH]c2c1", "inactive"],
  ["Nc1nc(N)c2c(n1)NC(c1ccc(F)cc1)C1CCc3ccccc3C1=N2 (stereo not given)", "inactive"],
  ["O=C(CCNCc1ccccc1)c1ccccc1", "inactive"],
  ["COCCCNc1nc(NC(=O)c2cc(OC)cc(OC)c2)cc(-c2cccnc2)n1", "inactive"],
  ["CN(C)c1ccc(N=Nc2ccc3ccccc3c2)cc1", "inactive"]
]}

Q. # lookup: test call for CC1Cc2c(Cl)ncnc2N(C)c2ccc(O)cc21 (stereo not given)
A. inactive

Q. Hi team, can someone confirm the assay call for O=C(O)c1cn(C2CC2)c2cc(N3CCN(Cc4c(O)ccc5ccccc45)CC3)c(F)cc2c1=O ?
A. active

Q. What is the recorded call for this molecule in the test? CCOC(=O)C(c1ccccc1)N1C(=O)c2ccccc2C1=O (stereo not given)
A. inactive

Q. Call for entry Nc1cc(NN=C(c2ccc(O)cc2)c2ccc(O)cc2)c([N+](=O)[O-])cc1[N+](=O)[O-] :
A. inactive

Q. Dear all, I need the recorded test outcome for CC1(C)OC2[C@@H](CNC(=O)NC(=O)NC(=O)CI)O[C@@H](n3cnc4c(NC(=O)Nc5ccccc5)ncnc43)[C@H]2O1 (stereo not given in full) , thank you.
A. inactive

Q. Assay result, entry Cc1nn(-c2ccccc2)c(N2CCOCC2)c1-c1nc2ccc([N+](=O)[O-])cc2[nH]1 — outcome?
A. inactive

Q. // return assay outcome for CCN=C1C=CC(=C(c2ccc(N(CC)CC)cc2)c2ccc(N(CC)CC)cc2)c2ccccc21
A. active

Q. Kindly provide the recorded test outcome for the following molecule: O=C(OCc1ccc2c(Cl)cc(Cl)c(O)c2n1)N1CCNCC1
A. inactive

Q. What was the test verdict on CCCCCCCCCCCCNC(=S)N/N=C/c1ccccc1O ?
A. inactive

Q. # fetch the recorded call for O=C(Nc1cccc2cccnc12)c1cc(C(=O)c2ccc(Cl)cc2)n2ccc(-c3ccncc3)cc12 here
A. inactive

###

Test system: RXF 393 renal
protocol.text: NCI-60 one-dose screen, 48 h
condition.parameters: 10 µM unless noted
About 83,000 compounds went through this panel and 20% of them were active in at least one assay; those are over-represented in the sample as a whole. Calls of active or inactive are those of the source. Rule for the calls: active = growth percent below 10; inactive = the rest.
In this exercise, the only acceptable responses are 1 = active, 0 = inactive

Examples with answers:
{"columns": ["compound", "group"],
 "data": [
  ["Nc1nc(N)c2c(n1)NC(c1ccc(F)cc1)C1CCc3ccccc3C1=N2 (centres undefined)", 0],
  ["O=C(Nc1cc(-c2cccnc2)nc(NCCCN2CCOCC2)n1)c1cc(Br)cc(C(F)(F)F)c1", 0],
  ["C/C=C/C1OC23CCCCC2C(C#N)(C(=N)O3)C1(C#N)C#N (centres undefined)", 0],
  ["O=C(N=c1n(-c2ccccc2)nc2n1CCN2C1=NCCN1C(=O)c1ccc(Cl)cc1)c1ccc(Cl)cc1", 0],
  ["Cc1nc(-c2ccccc2)sc1CC#N", 0]
]}

Q. Can you look up the reported call for O=C(O)c1cccc(CN2CCN(c3cc4c(cc3F)c(=O)c(C(=O)O)cn4C3CC3)CC2)c1O for me?
A. 0

Q. For COc1cc2c(cc1OCCCCCOc1ccc(-n3c(C)nc4ccccc4c3=O)cc1)N=C[C@@H]1CCCN1C2=O , what call appears in the results of this test?
A. 1

Q. Please let me know the test result on file for O=C(Nc1cccc2cccnc12)c1cc(C(=O)c2ccc(Cl)cc2)n2ccc(-c3ccncc3)cc12 .
A. 0

Q. Query: recorded result category for C#CCNC(=O)CC[C@@H](C)[C@H]1CC[C@H]2[C@@H]3CC[C@@H]4CC(=O)CC[C@]4(C)[C@H]3CC[C@]12C in this test
A. 1

Q. Query: recorded result category for COc1ccc2c(c1)c(-c1noc(C(=O)c3cn(C)c4ncc(Br)cc34)n1)cn2C in this test
A. 0

Q. Recorded test call requested for C=C(CC(=O)OC)C(C)=O
A. 0

Q. What was the test verdict on CC(=O)n1cc(C=O)c2ccccc21 ?
A. 0

Q. GET /call?item= CC1(C)OC2[C@@H](CNC(=O)NC(=O)NC(=O)CI)O[C@@H](n3cnc4c(NC(=O)Nc5ccccc5)ncnc43)[C@H]2O1 (some centres undefined) returns the recorded outcome of this test.
A. 0

Q. Assay result, entry CC1(C)C(=NO)C(C)(C)C1=NO — outcome?
A. 0
